biological target: human 5α-reductase isozyme type 1 (Homo sapiens, UniProt P18405); construct: expressed in transfected cells; host or cells: Rat-1A cells infected with pMV7 retrovirus; microsomes of these cells; experiment: 4-[14C]testosterone reduction, human type 1 isozyme; assay type: biochemical; conditions: read-out: % Inhibition of 5α-reduction
Sequence (P18405 whole entry): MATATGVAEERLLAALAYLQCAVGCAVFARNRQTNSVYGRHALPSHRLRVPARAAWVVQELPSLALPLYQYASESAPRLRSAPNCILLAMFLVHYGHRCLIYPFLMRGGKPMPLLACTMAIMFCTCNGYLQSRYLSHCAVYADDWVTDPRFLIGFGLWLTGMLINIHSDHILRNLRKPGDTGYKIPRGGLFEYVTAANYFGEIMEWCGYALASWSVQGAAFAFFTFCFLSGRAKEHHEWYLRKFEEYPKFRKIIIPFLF
attributeMeasured: inhibition at 30 µM (%)
Reply with just the number (in %).

Worked cases, inhibition at 30 µM given:
CCCCC/C=C\C/C=C\C/C=C\CCCCC(=O)O [γ-Linolenic acid, γ-linolenic acid] ... 99
O=C(O[C@@H]1Cc2c(O)cc(O)cc2O[C@@H]1c1ccc(O)c(O)c1)c1cc(O)c(O)c(O)c1 [ECG, (-)Epicatechin-3-gallate] ... 90

Consider now this further compound.
// field: inhibition at 30 µM; key: O=C(O[C@@H]1Cc2c(O)cc(O)cc2O[C@@H]1c1cc(O)c(O)c(O)c1)c1cc(O)c(O)c(O)c1 [EGCG, (-)Epigallocatechin-3-gallate] ; value = 89
